# Test system: HCC-2998 colon
# METHOD SUMMARY: NCI tumour cell line growth inhibition, 48 h
PROPERTY LABEL: TGI
# do not omit the unit; it follows the number

stdin: Data request, read-out TGI, for c1ccc(CCN(Cc2nc3ccccc3[nH]2)Cc2nc3ccccc3[nH]2)cc1
stdout: 33.6 µM

stdin: What do you have for C/C=C(/C)C(=O)O[C@H]1C(C)=C[C@]23C(=O)[C@@H](C=C(COC(C)=O)[C@@H](O)[C@]12O)[C@H]1[C@@H](C[C@H]3C)[C@@]1(C)OC(=O)/C(C)=C\C ?
stdout: 5.59 µM

stdin: What do you have for C=C(C)[C@@H]1CC[C@]2(C(=O)O)CC[C@]3(C)[C@H](CC[C@@H]4[C@@]5(C)CC[C@H](C(=O)/C=C/c6ccc(O)cc6)C(C)(C)[C@@H]5CC[C@]43C)[C@@H]12 ?
stdout: 11.4 µM

###

# Tested on: SN12C renal
# METHOD SUMMARY: NCI tumour cell line growth inhibition, 48 h
PROPERTY LABEL: TGI

stdin: Form entry - test system: SN12C renal; read-out: TGI; compound: CCOC(=O)CCC(NC(=O)c1ccc(Nc2nc3cc(C(F)(F)F)ccc3nc2-c2ccccc2)cc1)C(=O)OCC (stereo unspecified)
stdout: > 100 µM

stdin: What do you have for O=C1CCC2SC1CCC2=O ?
stdout: > 100 µM

stdin: What do you have for N.N.NC(CS)C(=O)[O-].NC(CS)C(=O)[O-].[Pt+4] (stereo unspecified) ?
stdout: > 50 µM

stdin: What do you have for Nc1ccccc1C#C/C=C\C#Cc1ccc(Cl)cc1Cl ?
stdout: 30.5 µM

stdin: What do you have for C=C[C@H]1CN2CCc3c([nH]c4c([C@H]5CCCN5C)c(O)ccc34)[C@@H]2C[C@@H]1C[C@H]1c2[nH]c3ccccc3c2CCN1C ?
stdout: 3.04 µM

stdin: What do you have for O=S(=O)(O)c1c(N=Nc2c(O)ccc3ccccc23)ccc2ccccc12 ?
stdout: > 100 µM

stdin: What do you have for Cc1ccc(S(=O)(=O)NNC(=S)Nc2cccc3ccccc23)cc1 ?
stdout: > 100 µM

stdin: What do you have for CC(=O)O[C@H]1C(=O)[C@@]2(C)[C@H]([C@H](OC(=O)C3CCCCC3)[C@]3(O)C[C@H](OC(=O)[C@H](O)[C@@H](NC(=O)C4CCCCC4)C4CCCCC4)C(C)=C1C3(C)C)[C@]1(OC(C)=O)CO[C@@H]1C[C@@H]2O ?
stdout: 14.8 µM

stdin: What do you have for COc1cc2[nH]c(-c3cccc(N(C)C)c3)cc(=O)c2cc1OC ?
stdout: > 100 µM

stdin: What do you have for Cc1cc2c(s1)C(=O)c1sccc1C2=O ?
stdout: 1.25 µM

stdin: What do you have for S=C(Nc1cccc(Cl)c1)Nc1ccccn1 ?
stdout: > 100 µM

stdin: What do you have for N=C(N)CCCCCCCCC(=N)N ?
stdout: > 100 µM

stdin: What do you have for N=C1C(=N)c2ccccc2-c2ccccc21 ?
stdout: 2.49 µM

stdin: What do you have for CN(C)c1ccc2c3c(c(=O)oc2c1)CCC3 ?
stdout: > 100 µM

stdin: What do you have for O=C1CCC2(C=C(Br)C(=O)C(Br)=C2)O1 ?
stdout: 35.3 µM

stdin: What do you have for O=C1OC2(c3ccccc3Oc3ccccc32)c2ccccc21 ?
stdout: > 100 µM

stdin: What do you have for C[C@]12CCC(=O)C(O)=C1CC[C@@H]1[C@@H]2CC[C@]2(C)C(=O)CC[C@@H]12 ?
stdout: > 100 µM

stdin: What do you have for COC1OC(CO)C(O)C(OC(=O)c2cc(O)c(O)c(O)c2)C1OC(=O)c1cc(O)c(O)c(O)c1 (stereo unspecified) ?
stdout: > 100 µM

stdin: What do you have for CCN(CC)CCCCCCCNc1c2ccc(Cl)cc2nc2ccc(OC)cc12 ?
stdout: 5.36 µM

stdin: What do you have for CSc1cc(Cl)c(C)cc1S(=O)(=O)NC(=O)NNc1ccc(F)c(Cl)c1 ?
stdout: > 100 µM

stdin: What do you have for CC(=O)OC1COC(n2c(N)c(C#N)c(C)c(C#N)c2=S)C(OC(C)=O)C1OC(C)=O (stereo unspecified) ?
stdout: > 100 µM
